src = BindingDB's records for doi:10.1021/bi3002067

Biological target: Salicylate synthase (Mycobacterium tuberculosis (strain CDC 1551 / Oshkosh))
Sequence (P9WFX0 whole entry): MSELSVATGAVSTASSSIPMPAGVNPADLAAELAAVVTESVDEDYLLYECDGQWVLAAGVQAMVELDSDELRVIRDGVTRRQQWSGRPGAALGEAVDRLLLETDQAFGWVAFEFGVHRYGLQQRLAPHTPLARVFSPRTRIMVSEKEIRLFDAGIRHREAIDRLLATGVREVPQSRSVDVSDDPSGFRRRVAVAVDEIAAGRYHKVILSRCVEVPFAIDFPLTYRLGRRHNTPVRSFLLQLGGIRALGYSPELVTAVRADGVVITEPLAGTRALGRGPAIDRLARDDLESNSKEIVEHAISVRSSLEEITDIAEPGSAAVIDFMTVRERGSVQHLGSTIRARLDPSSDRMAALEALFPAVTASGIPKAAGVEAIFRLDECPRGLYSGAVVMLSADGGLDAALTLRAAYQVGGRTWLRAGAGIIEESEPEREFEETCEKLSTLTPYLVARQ
Assay: Fluorescence-Based Thermal Shift Assay
measured_parameter: Ki (µM)
The figure you give is taken to be in µM; do not add the unit.

In: Param request: Ki | system Salicylate synthase (Mycobacterium tuberculosis (strain CDC 1551 / Oshkosh)) | item "O=C(O)C(=CC1CC1)Oc1cccc(C(=O)O)c1O"
Out: 12
